Assign growth to each entry below.
- Test system: ACHN renal
- ASSAY_INFO: NCI-60 one-dose screen, 48 h (100 = growth as untreated, 0 = no growth, -100 = all killed)
- RECORDED_CONDITIONS: 10 µM unless noted
About 83,000 compounds went through this panel and 20% of them were active in at least one assay; those are over-represented in the sample as a whole. Active and inactive are the calls of the source. The calls were made as follows: active = growth percent below 10; inactive = the rest.

Entry CCCCN1C(=O)/C(=c2\sc3n(c2=O)C2C(NN=3)N(CC)C(=O)N2CC)c2cc(Cl)ccc21 (stereo not given) ; assay system ACHN renal; growth recorded at 64.5% (inactive)

Entry `COc1cc(/C=C/C(=O)c2ccc(Cl)cc2)ccc1Oc1nc(NCCO)nc(N2CCOCC2)n1` ; assay system ACHN renal; growth recorded at 98.8% (inactive)

Entry `NS(=O)(=O)c1ccc(Nc2nc(SCC(=O)c3ccc(Cl)cc3)nc3ccccc23)cc1` ; assay system ACHN renal; growth recorded at 89% (inactive)

Entry `N#Cc1c(-c2ccc(Cl)cc2)nc(SCc2ccc(F)cc2)nc1N1CCNCC1` ; assay system ACHN renal; growth recorded at 36% (inactive)

Entry `N#Cc1nc(-c2ccccc2)oc1S(N)(=O)=O` ; assay system ACHN renal; growth recorded at 73% (inactive)

Entry `CNC(=O)c1cc(-c2ccc(NC(=O)Nc3ccc(N4CCN(C)CC4)c(C(F)(F)F)c3)cc2)nc2cccnc12` ; assay system ACHN renal; growth recorded at -94.6% (active)

Entry C#Cc1nc(C2=C(C)C(OC(C)=O)/C(=N/OC(C)=O)C2)cs1 (stereo not given) ; assay system ACHN renal; growth recorded at -66% (active)

Entry O=C1NC(=C(Cl)Cl)/C(=N/S(=O)(=O)N2CCCCC2CC2(C(F)(F)F)N=N2)N1 (stereo not given) ; assay system ACHN renal; growth recorded at -48.9% (active)

Entry `COc1ccc(-c2nc3ccc(-c4nnc(SCC(=O)Nc5ccc(C(C)=O)cc5)o4)cc3[nH]2)cc1` ; assay system ACHN renal; growth recorded at 102% (inactive)

Entry `O=C1c2c(c3c4cc(Br)ccc4[nH]c3c3ccc4ccccc4c23)C(=O)N1CCO` ; assay system ACHN renal; growth recorded at 73.7% (inactive)

Entry `COc1ccc(-n2c(SCC(=O)Nc3ccc(-c4nc5ccccc5[nH]4)cc3)nc3ccccc3c2=O)cc1` ; assay system ACHN renal; growth recorded at 54% (inactive)

Entry `CCC/C=C/C=C/C(=O)N[C@@H](Cc1cc(F)cc(F)c1)C(=O)N[C@@H]1C(=O)N2CCC[C@H]2C(=O)N2CCCC[C@H]2C(=O)N[C@@H](C)C(=O)N2C[C@H](C)C[C@H]2C(=O)O[C@H]1C` ; assay system ACHN renal; growth recorded at 23.1% (inactive)

Entry O=C(c1ccc(Cl)cc1)C1[C@H](c2ccc(Cl)cc2)[C@@H](c2ccccc2)NC12C(=O)Nc1ccc(Br)cc12 (stereo not given in full) ; assay system ACHN renal; growth recorded at 14.3% (inactive)

Entry `COc1cc(/C=C/C(=O)c2cc(OC)c(OC)c(OC)c2)ccc1OCc1ccccc1` ; assay system ACHN renal; growth recorded at 60% (inactive)

Entry `NS(=O)(=O)c1cccc(Nc2nc(SCC(=O)c3ccc([N+](=O)[O-])cc3)nc3ccccc23)c1` ; assay system ACHN renal; growth recorded at 45.8% (inactive)
